Ref: paper PMC9820559

Assay Target: RSV N-RNA complex (Human respiratory syncytial virus A)
Construct: Full-length N was produced by co-expression with the C-terminal domain of RSV P protein in E. coli BL21(DE3); made in house; host or cells: E. coli BL21(DE3), co-transformed with pET-N and pGEX-P(161–241)
Sequence (P03418 whole entry, looked up, the tested form may be a part, one chain of several): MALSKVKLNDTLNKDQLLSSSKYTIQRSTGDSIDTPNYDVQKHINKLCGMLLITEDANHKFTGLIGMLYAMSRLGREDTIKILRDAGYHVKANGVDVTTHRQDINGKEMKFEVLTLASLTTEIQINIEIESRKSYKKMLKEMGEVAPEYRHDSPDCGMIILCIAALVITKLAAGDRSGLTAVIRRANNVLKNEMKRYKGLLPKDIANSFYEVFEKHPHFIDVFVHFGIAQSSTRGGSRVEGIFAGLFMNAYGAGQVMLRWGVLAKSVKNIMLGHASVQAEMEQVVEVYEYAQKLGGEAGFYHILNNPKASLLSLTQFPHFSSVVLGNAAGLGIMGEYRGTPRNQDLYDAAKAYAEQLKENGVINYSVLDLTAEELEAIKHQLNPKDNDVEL
Test Name: Fluorescence polarization inhibition of N-RNA binding to fluorescent probes
Run Conditions: probe BCN6E, [N-RNA] 10 µM; IC50-to-Ki server; read-out: Ki
Procedure: We next performed inhibition experiments for the F11-(N-RNA) complex by M76 (Figure 4B). FP values decreased with increasing competitor concentration. […] Inhibition constants Ki were calculated on the IC50-to-Ki converter for a protein-ligand-inhibitor system (https://bioinfo-abcc.ncifcrf.gov/IC50_Ki_Converter/index.php, accessed on 24 August 2022), assuming a competitive mechanism (Equation (13)). […]

- Compound: "O=C(O)c1cc(C(=O)O)n(Cc2ccc(Cl)cc2Cl)n1 [M76]"
  Assay Target: "RSV N-RNA complex (Human respiratory syncytial virus A)"
  Unit Spec: "nM"
  Ki: 1100
